Molecular target: hQC (Homo sapiens, UniProt Q16769)
Sequence (Q16769 29-361): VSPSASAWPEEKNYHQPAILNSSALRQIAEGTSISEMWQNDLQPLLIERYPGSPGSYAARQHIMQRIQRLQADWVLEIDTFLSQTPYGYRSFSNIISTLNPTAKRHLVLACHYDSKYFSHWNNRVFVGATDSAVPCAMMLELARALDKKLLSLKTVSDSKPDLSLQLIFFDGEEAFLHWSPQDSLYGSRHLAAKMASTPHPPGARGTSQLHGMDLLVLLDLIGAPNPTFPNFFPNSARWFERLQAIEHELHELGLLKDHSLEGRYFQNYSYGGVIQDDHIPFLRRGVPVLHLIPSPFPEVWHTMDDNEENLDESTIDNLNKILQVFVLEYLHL
Experiment: Fluorometric assay of glutaminyl cyclase (QC) inhibition, H-Gln-βNA or H-Gln-AMC substrate
Assay type: biochemical
Conditions: read-out: IC50
pIC50: −log10 of the molar value.
Cut-off 6 on pIC50, inclusive. At or above means met; below means not met.

| Molecule | Assay system | Group |
| --- | --- | --- |
| O=C1N/C(=N/Cc2ccc(Cl)cc2)C(c2cc(F)cc(F)c2)N1CCCn1ccnc1 (stereo not shown) | hQC (Homo sapiens, UniProt Q16769) | not met |
| Cc1nc[nH]c1C1/C(=N/C2CCCCC2O)NC(=O)N1c1ccc2[nH]cnc2c1 (stereo not shown) | hQC (Homo sapiens, UniProt Q16769) | not met |
| Cc1ccc2occ(C3/C(=N/C4CCc5ccccc54)NC(=O)N3c3ccc4[nH]cnc4c3)c(=O)c2c1 (stereo not shown) | hQC (Homo sapiens, UniProt Q16769) | met |
| COc1cc(C/N=C2/NC(=O)N(CCCn3ccnc3)C2C2CCC=CO2)cc(OC)c1OC (stereo not shown) | hQC (Homo sapiens, UniProt Q16769) | not met |
| CC(/N=C1\NC(=O)N(CCCn2ccnc2)C1c1cccc(F)c1F)c1ccccc1 (stereo not shown) | hQC (Homo sapiens, UniProt Q16769) | not met |
| S=C1N/C(=N/Cc2ccccc2)C(c2ccc(Cl)cc2)N1c1ccc2[nH]cnc2c1 (stereo not shown) | hQC (Homo sapiens, UniProt Q16769) | not met |
| O=C(C/N=C1\NC(=O)N(c2ccc3[nH]cnc3c2)C1c1ccccc1Cl)N1CCSCC1 (stereo not shown) | hQC (Homo sapiens, UniProt Q16769) | not met |
| O=C(C/N=C1\NC(=S)N(c2ccc3[nH]cnc3c2)C1c1c(F)ccc(Cl)c1F)N1CCCC(O)C1 (stereo not shown) | hQC (Homo sapiens, UniProt Q16769) | not met |
| COc1cc(C/N=C2\NC(=O)N(CCCn3ccnc3)C2c2cccc(F)c2F)cc(OC)c1OC (stereo not shown) | hQC (Homo sapiens, UniProt Q16769) | not met |
| O=C1N/C(=N/CCc2ccccn2)C(c2c[nH]c3cc(F)ccc23)N1c1ccc2[nH]cnc2c1 (stereo not shown) | hQC (Homo sapiens, UniProt Q16769) | not met |
| O=C1NC(=NC2CCCc3ccccc32)C(c2ccccc2Cl)N1c1ccc2[nH]cnc2c1 (stereo not shown) | hQC (Homo sapiens, UniProt Q16769) | met |
| N#Cc1cccc(/N=C2\NC(=S)N(c3ccc4[nH]cnc4c3)C2c2ccc3c(c2)OCCO3)c1 (stereo not shown) | hQC (Homo sapiens, UniProt Q16769) | not met |
| C/N=C1/NC(=O)N(c2ccc3[nH]cnc3c2)C1c1ccc(C)cc1 (stereo not shown) | hQC (Homo sapiens, UniProt Q16769) | met |
| O=C(C/N=C1\NC(=O)N(c2ccc3[nH]cnc3c2)C1c1c(F)ccc(Cl)c1F)N1CCCC(O)C1 (stereo not shown) | hQC (Homo sapiens, UniProt Q16769) | met |
| Cc1ccc(C2/C(=N/C3CCCCCC3)NC(=O)N2c2ccc3nc[nH]c3c2)c(C)c1 (stereo not shown) | hQC (Homo sapiens, UniProt Q16769) | met |

These data points were gathered from patent US20080221086A1.
